System: 889142-216-R-J1-PDC complex spheroid viability
assay.name: Anticancer human tumor 889142-216-R-J1-PDC patient-derived bladder carcinoma cell line growth inhibition [POLQ]
conditions: second compound 0.0316 µM; first compound 0.1 µM; active compounds read low
metric: viability, T/C (%)

molecule: CC(C)n1c(=O)n(C)c2cnc3cc(F)c(-c4ccc(OCCCN5CCCCC5)nc4)cc3c21 + COC1C(OC(N)=O)C(O)C(Oc2ccc3c(O)c(NC(=O)c4ccc(O)c(CC=C(C)C)c4)c(=O)oc3c2C)OC1(C)C
endpoint.value: 86.3
//
molecule: COc1cc2cc(C(=O)CCC(=O)O)sc2cc1OC + COC1C(OC(N)=O)C(O)C(Oc2ccc3c(O)c(NC(=O)c4ccc(O)c(CC=C(C)C)c4)c(=O)oc3c2C)OC1(C)C
endpoint.value: 93
//
molecule: COc1cc2cc(C(=O)CCC(=O)O)sc2cc1OC + Cc1cccc(N(C)C(=O)C2C(O)CCN2c2nc(C)cc(C(F)(F)F)c2C#N)c1
endpoint.value: 127

###

System: 889142-216-R-J1-PDC complex spheroid viability
assay.name: Anticancer human tumor 889142-216-R-J1-PDC cell line growth inhibition [POLQ];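 also: spheroids exposed to compounds for seven days; 100% = DMSO vehicle control viability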
conditions: second compound 0.1 µM; first compound 0.316 µM; active compounds read low

compound: O=C(Nc1ccc(O)c(NS(=O)(=O)c2ccc(F)cc2)c1)c1ccc(-c2ccccc2)cc1 + COC1C(OC(N)=O)C(O)C(Oc2ccc3c(O)c(NC(=O)c4ccc(O)c(CC=C(C)C)c4)c(=O)oc3c2C)OC1(C)C
viability, T/C: 92.6%
--
compound: CNCc1ccc(-c2[nH]c3cc(F)cc4c3c2CCNC4=O)cc1 + COC1C(OC(N)=O)C(O)C(Oc2ccc3c(O)c(NC(=O)c4ccc(O)c(CC=C(C)C)c4)c(=O)oc3c2C)OC1(C)C
viability, T/C: 96.4%
--
compound: CNCc1ccc(-c2[nH]c3cc(F)cc4c3c2CCNC4=O)cc1 + Cc1cccc(N(C)C(=O)C2C(O)CCN2c2nc(C)cc(C(F)(F)F)c2C#N)c1
viability, T/C: 95.9%
--
compound: O=C(c1cc(Cc2n[nH]c(=O)c3ccccc23)ccc1F)N1CCN(C(=O)C2CC2)CC1 + COC1C(OC(N)=O)C(O)C(Oc2ccc3c(O)c(NC(=O)c4ccc(O)c(CC=C(C)C)c4)c(=O)oc3c2C)OC1(C)C
viability, T/C: 104%
--
compound: O=C(Nc1ccc(O)c(NS(=O)(=O)c2ccc(F)cc2)c1)c1ccc(-c2ccccc2)cc1 + Nc1ccc(C#CCN(C(=O)Cc2ncc(C(F)(F)F)cc2C(F)(F)F)c2ccc(F)cc2)nn1
viability, T/C: 94.1%
--
compound: CC1COCCN1c1cc(C2(S(C)(=N)=O)CC2)nc(-c2ccnc3[nH]ccc23)n1 (stereo unspecified) + COC1C(OC(N)=O)C(O)C(Oc2ccc3c(O)c(NC(=O)c4ccc(O)c(CC=C(C)C)c4)c(=O)oc3c2C)OC1(C)C
viability, T/C: 82.9%
--
compound: Nc1ccn(C2OC(CO)C(O)C2(F)F)c(=O)n1 (stereo unspecified) + Cc1cccc(N(C)C(=O)C2C(O)CCN2c2nc(C)cc(C(F)(F)F)c2C#N)c1
viability, T/C: 44.5%
--
compound: CC1COCCN1c1cc(C2(O)CC3CCC(C2)O3)c2cnn(-c3ccn[nH]3)c2n1 (stereo unspecified) + Nc1ccc(C#CCN(C(=O)Cc2ncc(C(F)(F)F)cc2C(F)(F)F)c2ccc(F)cc2)nn1
viability, T/C: 49.4%
--
compound: C#Cc1c(F)ccc2cc(O)cc(-c3ncc4c(N5CC6CCC(C5)N6)nc(OCC56CCCN5CC(F)C6)nc4c3F)c12 (stereo unspecified) + COC1C(OC(N)=O)C(O)C(Oc2ccc3c(O)c(NC(=O)c4ccc(O)c(CC=C(C)C)c4)c(=O)oc3c2C)OC1(C)C
viability, T/C: 77.4%
--
compound: COc1cc(C2c3cc4c(cc3C(OC3OC5COC(C)OC5C(O)C3O)C3COC(=O)C23)OCO4)cc(OC)c1O (stereo unspecified) + Nc1ccc(C#CCN(C(=O)Cc2ncc(C(F)(F)F)cc2C(F)(F)F)c2ccc(F)cc2)nn1
viability, T/C: 69.3%
--
compound: COc1cccc2c1C(=O)c1c(O)c3c(c(O)c1C2=O)CC(O)(C(=O)CO)CC3OC1CC(N)C(O)C(C)O1 (stereo unspecified) + Nc1ccc(C#CCN(C(=O)Cc2ncc(C(F)(F)F)cc2C(F)(F)F)c2ccc(F)cc2)nn1
viability, T/C: 52%
--
compound: O=c1[nH]cc(F)c(=O)[nH]1 + Nc1ccc(C#CCN(C(=O)Cc2ncc(C(F)(F)F)cc2C(F)(F)F)c2ccc(F)cc2)nn1
viability, T/C: 58.8%
--
compound: COc1cc2cc(C(=O)CCC(=O)O)sc2cc1OC + COC1C(OC(N)=O)C(O)C(Oc2ccc3c(O)c(NC(=O)c4ccc(O)c(CC=C(C)C)c4)c(=O)oc3c2C)OC1(C)C
viability, T/C: 102%
--
compound: CC1COCCN1c1cc(C2(O)CC3CCC(C2)O3)c2cnn(-c3ccn[nH]3)c2n1 (stereo unspecified) + COC1C(OC(N)=O)C(O)C(Oc2ccc3c(O)c(NC(=O)c4ccc(O)c(CC=C(C)C)c4)c(=O)oc3c2C)OC1(C)C
viability, T/C: 38.6%
--
compound: C#Cc1c(F)ccc2cc(O)cc(-c3ncc4c(N5CC6CCC(C5)N6)nc(OCC56CCCN5CC(F)C6)nc4c3F)c12 (stereo unspecified) + Cc1cccc(N(C)C(=O)C2C(O)CCN2c2nc(C)cc(C(F)(F)F)c2C#N)c1
viability, T/C: 78.3%
--
compound: COc1cccc(OCCCN)c1-c1cc(Nc2cnc(C#N)cn2)n[nH]1 + COC1C(OC(N)=O)C(O)C(Oc2ccc3c(O)c(NC(=O)c4ccc(O)c(CC=C(C)C)c4)c(=O)oc3c2C)OC1(C)C
viability, T/C: 31.5%
--
compound: C=CCn1c(=O)c2cnc(Nc3ccc(N4CCN(C)CC4)cc3)nc2n1-c1cccc(C(C)(C)O)n1 + Cc1cccc(N(C)C(=O)C2C(O)CCN2c2nc(C)cc(C(F)(F)F)c2C#N)c1
viability, T/C: 106%
--
compound: COc1cc(C2c3cc4c(cc3C(OC3OC5COC(C)OC5C(O)C3O)C3COC(=O)C23)OCO4)cc(OC)c1O (stereo unspecified) + Cc1cccc(N(C)C(=O)C2C(O)CCN2c2nc(C)cc(C(F)(F)F)c2C#N)c1
viability, T/C: 70.9%
--
compound: COc1cccc(OCCCN)c1-c1cc(Nc2cnc(C#N)cn2)n[nH]1 + Nc1ccc(C#CCN(C(=O)Cc2ncc(C(F)(F)F)cc2C(F)(F)F)c2ccc(F)cc2)nn1
viability, T/C: 45.8%
--
compound: CC1COCCN1c1cc(C2(S(C)(=N)=O)CC2)nc(-c2ccnc3[nH]ccc23)n1 (stereo unspecified) + Cc1cccc(N(C)C(=O)C2C(O)CCN2c2nc(C)cc(C(F)(F)F)c2C#N)c1
viability, T/C: 82%
--
compound: CCc1cc2c(N3CCc4c(cc(Cn5ccnc5)cc4-c4cn(C)nc4C(F)(F)F)C3=O)cc(C)nc2c(OC)n1 + Nc1ccc(C#CCN(C(=O)Cc2ncc(C(F)(F)F)cc2C(F)(F)F)c2ccc(F)cc2)nn1
viability, T/C: 126%

###

Catalogue of compounds with associated viability, T/C
Test system: 889142-216-R-J1-PDC complex spheroid viability
assay.name: Anticancer human tumor 889142-216-R-J1-PDC cell line growth inhibition [POLQ];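 also: spheroids exposed to compounds for seven days; 100% = DMSO vehicle control viability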
conditions: second compound 0.0316 µM; first compound 0.1 µM; active compounds read low

compound: O=c1[nH]cc(F)c(=O)[nH]1 + Nc1ccc(C#CCN(C(=O)Cc2ncc(C(F)(F)F)cc2C(F)(F)F)c2ccc(F)cc2)nn1
target.entity: 889142-216-R-J1-PDC complex spheroid viability
viability, T/C (%): 86.2
//
compound: CC1COCCN1c1cc(-c2ccnn2C)c2ccnc(-c3ccn[nH]3)c2n1 (stereo unspecified) + COC1C(OC(N)=O)C(O)C(Oc2ccc3c(O)c(NC(=O)c4ccc(O)c(CC=C(C)C)c4)c(=O)oc3c2C)OC1(C)C
target.entity: 889142-216-R-J1-PDC complex spheroid viability
viability, T/C (%): 56.2
//
compound: O=C(Nc1ccc(O)c(NS(=O)(=O)c2ccc(F)cc2)c1)c1ccc(-c2ccccc2)cc1 + Nc1ccc(C#CCN(C(=O)Cc2ncc(C(F)(F)F)cc2C(F)(F)F)c2ccc(F)cc2)nn1
target.entity: 889142-216-R-J1-PDC complex spheroid viability
viability, T/C (%): 101
//
compound: Nc1ccn(C2OC(CO)C(O)C2(F)F)c(=O)n1 (stereo unspecified) + Cc1cccc(N(C)C(=O)C2C(O)CCN2c2nc(C)cc(C(F)(F)F)c2C#N)c1
target.entity: 889142-216-R-J1-PDC complex spheroid viability
viability, T/C (%): 49.5
//
compound: CC(C)n1c(=O)n(C)c2cnc3cc(F)c(-c4ccc(OCCCN5CCCCC5)nc4)cc3c21 + Cc1cccc(N(C)C(=O)C2C(O)CCN2c2nc(C)cc(C(F)(F)F)c2C#N)c1
target.entity: 889142-216-R-J1-PDC complex spheroid viability
viability, T/C (%): 75.4
//
compound: COc1cc(C2c3cc4c(cc3C(OC3OC5COC(C)OC5C(O)C3O)C3COC(=O)C23)OCO4)cc(OC)c1O (stereo unspecified) + Nc1ccc(C#CCN(C(=O)Cc2ncc(C(F)(F)F)cc2C(F)(F)F)c2ccc(F)cc2)nn1
target.entity: 889142-216-R-J1-PDC complex spheroid viability
viability, T/C (%): 92.8
